Overview of reported pEC50 across a group of compounds:
Molecular target: UniProt P25106
Experiment: PathHunter CHO-K1 CXCR7 b-arrestin recruitment assay (CXCR7 agonistic activity)
Conditions: PathHunter CHO-K1 CXCR7 b-arrestin cell line
pEC50: −log10 of the molar value.
experimental.readout: pEC50

input_smiles=C=CCN1CCc2cccc(NCC(=O)N(CCN(C)C)Cc3ccccc3C(F)(F)F)c2C1 system_name="UniProt P25106" experimental_readout=pEC50 recorded_value=7.89
input_smiles=CCN1CCc2cccc(/C=C/C(=O)N(CCN(C)C)Cc3ccccc3C(F)(F)F)c2C1 system_name="UniProt P25106" experimental_readout=pEC50 recorded_value=8.70
input_smiles=CN(C)CCN(Cc1ccc(Br)cc1)C(=O)CNc1cccc2c1CCN(CC1CC1)C2 system_name="UniProt P25106" experimental_readout=pEC50 recorded_value=7.37
input_smiles=CCN1CCc2c(/C=C/C(=O)N(Cc3ccccc3C(F)(F)F)C3CCN(C)CC3)cccc2C1 system_name="UniProt P25106" experimental_readout=pEC50 recorded_value=7.47
input_smiles=COCCN1CCc2c(CCC(=O)N(CCC(C)(C)C)Cc3ncccc3C)cccc2C1 system_name="UniProt P25106" experimental_readout=pEC50 recorded_value=6.55
input_smiles=COCCN1CCc2c(CCC(=O)N(Cc3ncccc3Cl)CC(C)(C)O)cccc2C1 system_name="UniProt P25106" experimental_readout=pEC50 recorded_value=6.35
input_smiles=CN(C)CCN(Cc1ccccc1C(F)(F)F)C(=O)COc1cccc2c1CCN(CC1CC1)C2 system_name="UniProt P25106" experimental_readout=pEC50 recorded_value=9.10
input_smiles=CCC(=O)N1CCc2c(cccc2NCC(=O)N(CCCN(C)C)Cc2ccccc2)C1 system_name="UniProt P25106" experimental_readout=pEC50 recorded_value=7.43

----------
Entries and their pEC50 values follow.
Biological target: CXCR7 (Homo sapiens)
Assay: PathHunter CHO-K1 CXCR7 b-arrestin recruitment assay (CXCR7 agonistic activity)
Settings: PathHunter CHO-K1 CXCR7 b-arrestin cell line
pEC50: −log10 of the molar value.
experimental.readout: pEC50

compound=CCN1CCc2cccc(NCC(=O)N(Cc3ccccc3)C3CCNCC3)c2C1 experimental_readout=pEC50 recorded_value=6.56
compound=CN(C)CCN(Cc1ncccc1F)C(=O)CNc1cccc2c1CCN(CC1CC1)C2 experimental_readout=pEC50 recorded_value=8.00
compound=CNCCN(Cc1ccccc1C(F)(F)F)C(=O)CNc1cccc2c1CCN(C(=O)OCC(C)C)C2 experimental_readout=pEC50 recorded_value=6.60
compound=O=C(CNc1cccc2c1CCN(CC1CC1)C2)N(CCN1CCCC1)Cc1ccccc1C(F)(F)F experimental_readout=pEC50 recorded_value=9.00
compound=CCC(=O)N1CCc2c(cccc2NCC(=O)N(CCC(C)C)Cc2ccccc2)C1 experimental_readout=pEC50 recorded_value=6.71
compound=CCC(=O)N1CCc2c(cccc2NCC(=O)N(CCN(C)C)Cc2ccc(OC)cc2)C1 experimental_readout=pEC50 recorded_value=6.55
compound=CCN1Cc2cccc(NCC(=O)N(CCN(C)C)Cc3ccccc3C(F)(F)F)c2CC1=O experimental_readout=pEC50 recorded_value=7.62
compound="CNCCN(Cc1ccccc1C(F)(F)F)C(=O)CNc1cccc2c1CCN(CC1CC1)C2C (racemic)" experimental_readout=pEC50 recorded_value=8.10
compound="CN(C)CCN(Cc1ccccc1C(F)(F)F)C(=O)CNc1cccc2c1CCN(C(=O)C1CC1(F)F)C2 (racemic)" experimental_readout=pEC50 recorded_value=7.85
compound=CCN1CCc2c(CCC(=O)N(Cc3ccccc3C(F)(F)F)C3CCN(C)CC3)cccc2C1 experimental_readout=pEC50 recorded_value=7.14
compound=CN(C)CCN(Cc1ccccc1C(F)(F)F)C(=O)CNc1cccc2c1CCN(CCF)C2 experimental_readout=pEC50 recorded_value=7.43
compound=CCN1CCc2cccc(NCC(=O)N(CCN(C)C)Cc3cccc(Cl)c3)c2C1 experimental_readout=pEC50 recorded_value=7.27
compound=O=C(CNc1cccc2c1CN(CC1CC1)CC2)N(CCN1CCC(F)(F)CC1)Cc1ncccc1C(F)(F)F experimental_readout=pEC50 recorded_value=7.82
compound=CN(CCN(Cc1ccccc1C(F)(F)F)C(=O)CNc1cccc2c1CCN(CC1CC1)C2)C1CCCC1 experimental_readout=pEC50 recorded_value=9.00
compound=CCCC(=O)N1CCc2c(cccc2NCC(=O)N(CCNC)Cc2ncccc2C(F)(F)F)C1 experimental_readout=pEC50 recorded_value=7.82
compound=Cc1csc(CN(CCN(C)C)C(=O)CNc2cccc3c2CCN(CC2CC2)C3)n1 experimental_readout=pEC50 recorded_value=7.80
compound="C/C(=C\\c1ccccc1)CN(CCC1CCCN1C)C(=O)CNc1cccc2c1CCN(CC1CC1)C2 (racemic)" experimental_readout=pEC50 recorded_value=8.30
compound=CN(C)CCN(Cc1ccccc1)C(=O)CNc1cccc2c1CN(C)CC2 experimental_readout=pEC50 recorded_value=7.16
compound=CN(CCN(Cc1ccccc1C(F)(F)F)C(=O)CNc1cccc2c1CCN(CC1CC1)C2)CC(F)(F)F experimental_readout=pEC50 recorded_value=7.10
compound=CCN1CCc2c(cccc2NCC(=O)N(Cc2ccccc2C(F)(F)F)C2CCN(C)CC2)C1 experimental_readout=pEC50 recorded_value=7.35
compound="CC(C)(O)CN(Cc1ncccc1Cl)C(=O)/C=C/c1cccc2c1CCN(C(=O)[C@H]1C[C@H]1F)C2 (racemic)" experimental_readout=pEC50 recorded_value=6.50
compound=O=C(CNc1cccc2c1CCN(CC1CC1)C2)N(CCC(F)(F)F)Cc1ccccc1C(F)(F)F experimental_readout=pEC50 recorded_value=7.28
compound=CN(C)CCN(Cc1ccccc1C(F)(F)F)C(=O)CNc1cccc2c1CN(C(=O)N(C)C)CC2 experimental_readout=pEC50 recorded_value=8.10
compound=CNCCN(Cc1ccccc1C(F)(F)F)C(=O)CNc1cccc2c1CCN(C(=O)NC(C)(C)C)C2 experimental_readout=pEC50 recorded_value=7.10
compound=COCCN1CCc2c(/C=C/C(=O)N(CCN(C)C)Cc3ncccc3Cl)cccc2C1 experimental_readout=pEC50 recorded_value=7.70
compound=CCN(C)CCN(Cc1ccccc1C(F)(F)F)C(=O)CNc1cccc2c1CCN(CC1CC1)C2 experimental_readout=pEC50 recorded_value=9.00
compound=COCCN1CCc2c(/C=C/C(=O)N(CCN3CCC(F)(F)CC3)Cc3ncccc3Cl)cccc2C1 experimental_readout=pEC50 recorded_value=6.74
compound=CNCCN(Cc1ncccc1C(F)(F)F)C(=O)CNc1cccc2c1CCN(C(=O)NC1CCCCC1)C2 experimental_readout=pEC50 recorded_value=6.78
compound=CN(C)CCN(Cc1ccccc1C(F)(F)F)C(=O)CNc1cc(C(F)(F)F)cc2c1CCN(CC1CC1)C2 experimental_readout=pEC50 recorded_value=6.37
compound=COCCN1CCc2c(/C=C/C(=O)N(CCC(C)(C)C)Cc3ncccc3C)cccc2C1 experimental_readout=pEC50 recorded_value=6.81
compound=CCN1CCc2cccc(OCC(=O)N(CCN(C)C)Cc3ccccc3C(F)(F)F)c2C1 experimental_readout=pEC50 recorded_value=8.40

----------
Target: CXCR7 (Homo sapiens)
Experiment: PathHunter CHO-K1 CXCR7 b-arrestin recruitment assay (CXCR7 agonistic activity)
Settings: PathHunter CHO-K1 CXCR7 b-arrestin cell line
pEC50: −log10 of the molar value.
Below: a set of entries, each annotated with reported pEC50.
experimental.readout: pEC50

input_smiles=COC(=O)N1CCc2cccc(NCC(=O)N(CCN(C)C)Cc3ccccc3)c2C1 system_name="CXCR7 (Homo sapiens)" recorded_value=6.96
input_smiles=CNCCN(Cc1ccccc1C(F)(F)F)C(=O)CNc1cccc2c1CCN(C(=O)C(C)(C)C)C2 system_name="CXCR7 (Homo sapiens)" recorded_value=7.08
input_smiles=CNCCN(Cc1ncccc1C(F)(F)F)C(=O)CNc1cccc2c1CCN(C(=O)CC(C)(C)C)C2 system_name="CXCR7 (Homo sapiens)" recorded_value=6.83
input_smiles=CCN1CCc2cccc(NCC(=O)N(CCN(C)C)Cc3ccc(C)cc3)c2C1 system_name="CXCR7 (Homo sapiens)" recorded_value=7.10

----------
Listed next: entries and their corresponding pEC50.
Target: CXCR7 (Homo sapiens, UniProt P25106)
Sequence (P25106 whole entry): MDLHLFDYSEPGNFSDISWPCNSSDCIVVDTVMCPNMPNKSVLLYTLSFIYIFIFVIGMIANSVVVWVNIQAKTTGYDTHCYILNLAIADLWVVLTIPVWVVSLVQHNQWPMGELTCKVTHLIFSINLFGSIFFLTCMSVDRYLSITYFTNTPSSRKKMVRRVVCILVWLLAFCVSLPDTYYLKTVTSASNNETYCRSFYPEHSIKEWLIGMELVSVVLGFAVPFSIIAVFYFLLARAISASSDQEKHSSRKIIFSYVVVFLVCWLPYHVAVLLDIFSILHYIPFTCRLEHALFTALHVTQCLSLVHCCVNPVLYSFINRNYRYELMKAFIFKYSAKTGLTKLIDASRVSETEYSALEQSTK
Sequence (P32121 whole entry partner): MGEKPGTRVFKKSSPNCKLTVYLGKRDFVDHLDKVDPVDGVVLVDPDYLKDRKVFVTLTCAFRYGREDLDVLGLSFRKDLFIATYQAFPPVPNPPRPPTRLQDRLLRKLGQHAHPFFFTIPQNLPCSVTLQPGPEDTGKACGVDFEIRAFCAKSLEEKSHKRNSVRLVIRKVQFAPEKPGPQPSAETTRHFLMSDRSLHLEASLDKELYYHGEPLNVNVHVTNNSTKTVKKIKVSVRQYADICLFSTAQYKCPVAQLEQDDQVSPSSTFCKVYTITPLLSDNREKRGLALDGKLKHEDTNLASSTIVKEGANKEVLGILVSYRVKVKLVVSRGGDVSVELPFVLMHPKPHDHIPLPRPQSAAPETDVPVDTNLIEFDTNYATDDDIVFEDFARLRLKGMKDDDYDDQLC
Assay: PathHunter CHO-K1 CXCR7 b-arrestin recruitment assay (CXCR7 agonistic activity)
Conditions: PathHunter CHO-K1 CXCR7 b-arrestin cell line
pEC50: −log10 of the molar value.
experimental.readout: pEC50

molecule="CNCCN(Cc1ncccc1C(F)(F)F)C(=O)CNc1cccc2c1CCN(C(C)=O)C2 [compound 408]" experimental_readout=pEC50 recorded_value=8.00
molecule="CN(C)CCN(Cc1ccccc1C(F)(F)F)C(=O)CNc1cccc2c1C(C)(C)CN(C(=O)OC(C)(C)C)C2 [Example 90]" experimental_readout=pEC50 recorded_value=7.49
molecule="CN(C)CCN(Cc1ccccc1C(F)(F)F)C(=O)CNc1cccc2c1CCN(C(=O)C1(C(F)(F)F)CC1)C2 [Example 571]" experimental_readout=pEC50 recorded_value=7.07
molecule="COCCN1CCc2c(CCC(=O)N(Cc3ccccc3C(F)(F)F)CC3(C)COC3)cccc2C1 [Example 343]" experimental_readout=pEC50 recorded_value=6.38
molecule="CCN1CCc2cccc(NCC(=O)N(CCC#N)Cc3ccccc3C(F)(F)F)c2C1 [compound 516]" experimental_readout=pEC50 recorded_value=6.74
molecule="C=CCN1CCc2cccc(NCC(=O)N(CCN(C)CCF)Cc3ccccc3C(F)(F)F)c2C1 [compound 465]" experimental_readout=pEC50 recorded_value=7.41
molecule="CN(C)CCN(Cc1ccccc1C(F)(F)F)C(=O)CNc1cccc2c1CN(C(=O)C(C)(C)C)CC2 [compound 551]" experimental_readout=pEC50 recorded_value=7.46
molecule="CCN1CCc2c(cccc2NCC(=O)N(CCN(C)C)Cc2ccccc2C(F)(F)F)C1 [compound 135]" experimental_readout=pEC50 recorded_value=8.05
molecule="CC(C)OC(=O)N1CCc2cccc(NCC(=O)N(CCN(C)C)Cc3ccccc3C(F)(F)F)c2C1 [compound 553]" experimental_readout=pEC50 recorded_value=7.85
molecule="CCC(=O)N1CCc2c(cccc2NCC(=O)N(CCN(C)C)Cc2cccc(OC)c2)C1 [Example 29]" experimental_readout=pEC50 recorded_value=6.76
molecule="CCN1CCc2cccc(NCC(=O)N(CCC3CCCN3C)Cc3ccccc3)c2C1 (racemic) [compound 508]" experimental_readout=pEC50 recorded_value=7.47
molecule="CC(=O)N1CCc2c(cccc2NCC(=O)N(CCN(C)C)Cc2ccccc2)C1 [Example 108]" experimental_readout=pEC50 recorded_value=7.28
molecule="CCC(=O)N1CCc2c(cccc2NCC(=O)N(CCN(CC)CC)Cc2ccccc2)C1 [Example 27]" experimental_readout=pEC50 recorded_value=7.72
molecule="CN(C)CCN(Cc1ccccc1)C(=O)CNc1cccc2c1CN(CC1CCCCC1)CC2 [compound 194]" experimental_readout=pEC50 recorded_value=7.89
molecule="CC(C)N1CCc2c(cccc2NCC(=O)N(CCN(C)C)Cc2ccccc2)C1 [compound 109]" experimental_readout=pEC50 recorded_value=7.14
molecule="O=C(CNc1cccc2c1CCN(C(=O)[C@@H]1C[C@@H]1F)C2)N(Cc1ccccc1C(F)(F)F)CC1(O)CCCC1 (racemic) [Example 372]" experimental_readout=pEC50 recorded_value=6.57
molecule="CCCCNC(=O)N1CCc2c(cccc2NCC(=O)N(CCNC)Cc2ccccc2C(F)(F)F)C1 [compound 405]" experimental_readout=pEC50 recorded_value=6.59
molecule="CCN1CCc2cccc(NCC(=O)N(CCN(C)C)C(C)c3ccccc3C(F)(F)F)c2C1 (racemic) [compound 522]" experimental_readout=pEC50 recorded_value=6.85
molecule="CCN1CCc2cccc(NCC(=O)N(CCN3CCCC3)Cc3ccccc3C(F)(F)F)c2C1 [compound 489]" experimental_readout=pEC50 recorded_value=8.15
molecule="CN(C)CCN(Cc1ccccc1Cl)C(=O)/C=C/c1cccc2c1CCN(CC1CC1)C2 [compound 146]" experimental_readout=pEC50 recorded_value=8.70
molecule="CN(C)CCN(Cc1ccccc1C(F)(F)F)C(=O)CNc1cccc2c1CCN(C(=O)[C@H]1C[C@H]1F)C2 (racemic) [Example 363]" experimental_readout=pEC50 recorded_value=8.52
